Tested on: panel of 117 protein kinases
TEST_PROTOCOL: Kinase panel screen at 100 μM, radioactive filter-binding assay
Format: biochemical
CONDITION_PARAMETERS: panel of 117 kinases
READOUT_NAME: number of kinases inhibited with >40% inhibition

# MOLECULE, VALUE_MEASURED
records = [
    ("Nc1cnc2c(-c3c(F)cccc3F)cccn2c1=O [A2]", 55),
    ("Nc1nc2cnc(-c3ccccc3)cn2n1 [B1]", 63),
    ("O=c1c(NC(=S)NCc2ccccc2)cnc2[nH]ccn12 [F2]", "one"),
    ("O=C(Nc1cnc2[nH]cnn2c1=O)c1ccccc1 [E1]", "one"),
]

This collection of values is drawn from paper PMC3833278.
